These records show pIC50 for human GCase (Homo sapiens, UniProt P04062).
In plain terms, pIC50 is the concentration in mol/L turned into minus its base-10 logarithm.

State its pIC50 on human GCase (Homo sapiens, UniProt P04062): `CCCCCC[C@@H]1NC[C@@H](O)[C@H](O)[C@H]1CO` 8.38

# context switch: different compound, same pIC50
State its pIC50 on human GCase (Homo sapiens, UniProt P04062): `CCCC[C@@H]1NC[C@@H](O)[C@H](O)[C@H]1CO` 6.80

Where these numbers come from: patent US7741340B2
